# ASSAY REMARKS: activity coefficient (dimensionless); of the first substance listed, at infinite dilution; xn = mol fraction of the nth substance listed
# STUDY CONDITIONS: 373 K; Liquid; Chromatography; x1 = 0
OUTCOME MEASURE: activity coefficient
Lab note: write the figure by itself, no unit.

Answered cases to consult:
>>> recorded_measurement("C[N+](=O)[O-] [nitromethane] + Cn1cc[n+](C[Si](C)(C)C)c1.[Cl-]")
0.527
>>> recorded_measurement("CC#N [acetonitrile] + Cn1cc[n+](C[Si](C)(C)C)c1.[Cl-]")
0.712
>>> recorded_measurement("CCO [ethanol] + Cn1cc[n+](C[Si](C)(C)C)c1.[Cl-]")
0.163
>>> recorded_measurement("CCOC(C)=O [ethyl acetate] + Cn1cc[n+](C[Si](C)(C)C)c1.[Cl-]")
6.96
>>> recorded_measurement("C1COCCO1 [1,4-dioxane] + CCCCn1cc[n+](C)c1.O=S(=O)([O-])O")
3.36
>>> recorded_measurement("Cc1ccccc1 [toluene] + CCCCn1cc[n+](C)c1.O=S(=O)([O-])O")
11.1
>>> recorded_measurement("ClC(Cl)Cl [trichloromethane] + Cn1cc[n+](C[Si](C)(C)C)c1.[Cl-]")
0.253
>>> recorded_measurement("C1COCCO1 [1,4-dioxane] + Cn1cc[n+](C[Si](C)(C)C)c1.[Cl-]")
2.13
>>> recorded_measurement("c1ccccc1 [benzene] + CCCCn1cc[n+](C)c1.O=S(=O)([O-])O")
5.28
>>> recorded_measurement("COCCOC [1,2-dimethoxyethane] + CCCCn1cc[n+](C)c1.O=S(=O)([O-])O")
8.44

Look up activity coefficient for this compound: C[N+](=O)[O-] [nitromethane] + CCCCn1cc[n+](C)c1.O=S(=O)([O-])O
0.939

Suppose we examine the compound C1CCOC1 [tetrahydrofuran] + CCCCn1cc[n+](C)c1.O=S(=O)([O-])O ; what activity coefficient value has been reported?
7.34

* * *

# ASSAY REMARKS: activity coefficient (dimensionless); of the first substance listed, at infinite dilution; xn = mol fraction of the nth substance listed
# STUDY CONDITIONS: 313 K; Liquid; Chromatography; x1 = 0
# cutoff 5 applies to activity coefficient; >= gives Yes, < gives No

These recorded examples may help you get a feel for the data.
>>> classification("Cc1ccccc1 [toluene] + Cn1cc[n+](C[Si](C)(C)C)c1.[Cl-]")
"No"
>>> classification("Cc1ccccc1 [toluene] + CCCCn1cc[n+](C)c1.O=S(=O)([O-])O")
"Yes"
>>> classification("COCCOC [1,2-dimethoxyethane] + Cn1cc[n+](C[Si](C)(C)C)c1.[Cl-]")
"No"
>>> classification("COCCOC [1,2-dimethoxyethane] + CCCCn1cc[n+](C)c1.O=S(=O)([O-])O")
"No"
>>> classification("CC#N [acetonitrile] + Cn1cc[n+](C[Si](C)(C)C)c1.[Cl-]")
"No"
>>> classification("C1COCCO1 [1,4-dioxane] + Cn1cc[n+](C[Si](C)(C)C)c1.[Cl-]")
"No"
>>> classification("ClC(Cl)Cl [trichloromethane] + Cn1cc[n+](C[Si](C)(C)C)c1.[Cl-]")
"No"
>>> classification("c1ccccc1 [benzene] + Cn1cc[n+](C[Si](C)(C)C)c1.[Cl-]")
"No"
>>> classification("C1CCOC1 [tetrahydrofuran] + Cn1cc[n+](C[Si](C)(C)C)c1.[Cl-]")
"No"
>>> classification("CCOC(C)=O [ethyl acetate] + CCCCn1cc[n+](C)c1.O=S(=O)([O-])O")
"Yes"

Evaluate C1COCCO1 [1,4-dioxane] + CCCCn1cc[n+](C)c1.O=S(=O)([O-])O : activity coefficient at minimum 5?
No

* * *

# ASSAY REMARKS: activity coefficient (dimensionless); of the first substance listed, at infinite dilution; xn = mol fraction of the nth substance listed
# STUDY CONDITIONS: 313 K; Liquid; Chromatography; x1 = 0
Note to self: values exactly at 1 are satisfied. So activity coefficient at or above 1 is satisfied, below is not satisfied.

# count of solved cases: 2
>>> classification("C1CCOC1 [tetrahydrofuran] + CCCCn1cc[n+](C)c1.O=S(=O)([O-])O")
"satisfied"
>>> classification("CCOC(C)=O [ethyl acetate] + Cn1cc[n+](C[Si](C)(C)C)c1.[Cl-]")
"satisfied"

Hi, just wondering whether C[N+](=O)[O-] [nitromethane] + Cn1cc[n+](C[Si](C)(C)C)c1.[Cl-] shows activity coefficient of 1 or higher.
not satisfied

Is activity coefficient at least 1? Consider CC#N [acetonitrile] + CCCCn1cc[n+](C)c1.O=S(=O)([O-])O
satisfied

Answer whether activity coefficient of C[N+](=O)[O-] [nitromethane] + CCCCn1cc[n+](C)c1.O=S(=O)([O-])O is greater than or equal to 1.
not satisfied

* * *

# ASSAY REMARKS: activity coefficient (dimensionless); of the first substance listed, at infinite dilution; xn = mol fraction of the nth substance listed
# STUDY CONDITIONS: 373 K; Liquid; Chromatography; x1 = 0
Binary call on activity coefficient with cut-off 4: strictly below means satisfied, and equality or higher means not satisfied.

>>> classification("CCOC(C)=O [ethyl acetate] + CCCCn1cc[n+](C)c1.O=S(=O)([O-])O")
"not satisfied"
>>> classification("CO [methanol] + Cn1cc[n+](C[Si](C)(C)C)c1.[Cl-]")
"satisfied"
>>> classification("Cc1ccccc1 [toluene] + Cn1cc[n+](C[Si](C)(C)C)c1.[Cl-]")
"not satisfied"
>>> classification("C1CCOC1 [tetrahydrofuran] + Cn1cc[n+](C[Si](C)(C)C)c1.[Cl-]")
"not satisfied"
>>> classification("CC#N [acetonitrile] + CCCCn1cc[n+](C)c1.O=S(=O)([O-])O")
"satisfied"
>>> classification("c1ccccc1 [benzene] + Cn1cc[n+](C[Si](C)(C)C)c1.[Cl-]")
"satisfied"

Please look at the following compound next.
hey, is activity coefficient for CCCO [propan-1-ol] + Cn1cc[n+](C[Si](C)(C)C)c1.[Cl-] lower than 4 or not?
satisfied
